- Tested on: HIV-1 (JRCSF)
- Experiment Notes: Anti-HIV activity (Test Example 1-1): MaRBLE cells infected with HIV-1 (JRCSF), compound added 2 h after seeding, luciferase readout after 7 days
- Type: cell-based
- Assay Conditions: Human immunodeficiency virus 1, 168 h, 7 days culture, firefly luciferase, virus growth rate, 4 parameter Logistic Model (XLfit 4)
Recorded IC50 by entry
Dear colleague, please send the value followed by its unit.

Study these solved cases before continuing.
[
  {
    "Smiles Structure": "CCc1cc(=O)c2ccc(-c3c(C)noc3C)cc2n1Cc1cccc(F)c1N",
    "Readout Name": "IC50",
    "Meas Value": "0.26 nM"
  },
  {
    "Smiles Structure": "Cc1noc(C)c1-c1ccc2c(=O)cc(CO)n(-c3cc(N)c(F)cc3F)c2n1",
    "Readout Name": "IC50",
    "Meas Value": "0.54 nM"
  },
  {
    "Smiles Structure": "Cc1noc(C)c1-c1ccc2c(=O)cc(N)n(-c3ccc(F)cc3F)c2c1",
    "Readout Name": "IC50",
    "Meas Value": "2.8 nM"
  },
  {
    "Smiles Structure": "Cc1noc(C)c1-c1ccc2c(=O)cc(C)n(Cc3ccccc3N)c2c1",
    "Readout Name": "IC50",
    "Meas Value": "0.27 nM"
  },
  {
    "Smiles Structure": "Cc1noc(C)c1-c1ccc2c(=O)cc(C)n(-c3ccc(F)cc3F)c2n1",
    "Readout Name": "IC50",
    "Meas Value": "0.64 nM"
  },
  {
    "Smiles Structure": "Cc1noc(C)c1-c1ccc2c(=O)cc(C)n(-c3cc(N)c(F)cc3F)c2c1",
    "Readout Name": "IC50",
    "Meas Value": "1.4 nM"
  },
  {
    "Smiles Structure": "Cc1noc(C)c1-c1ccc2c(=O)cc(CN)n(-c3ccc(F)cc3F)c2n1",
    "Readout Name": "IC50",
    "Meas Value": "0.3 nM"
  },
  {
    "Smiles Structure": "Cc1noc(C)c1-c1ccc2c(=O)cc(C)n(-c3cc(N)c(Cl)cc3F)c2n1",
    "Readout Name": "IC50",
    "Meas Value": "0.48 nM"
  }
]

Task item: Value wanted: IC50 (HIV-1 (JRCSF)) of entry Cc1noc(C)c1-c1ccc2c(=O)cc(N)n(-c3ccc(F)cc3F)c2n1
Reply: 0.3 nM

Task item: Short answer please: IC50, HIV-1 (JRCSF), entry Cc1noc(C)c1-c1ccc2c(=O)cc(CO)n(-c3cc(N)c(F)cc3F)c2c1
Reply: 1.7 nM

Task item: Tell me reported IC50 for Cc1noc(C)c1-c1ccc2c(=O)cc(C)n(Cc3cccnc3N)c2c1 , tested with HIV-1 (JRCSF).
Reply: 3.5 nM

Task item: Item: Cc1noc(C)c1-c1ccc2c(=O)cc(C)n(Cc3ccccc3N)c2n1 Test system: HIV-1 (JRCSF) Read-out: IC50 Value: ?
Reply: 1.2 nM

Task item: I'm curious: which IC50 was measured for Cc1noc(C)c1-c1ccc2c(=O)cc(CO)n(-c3ccc(F)cc3F)c2n1 tested on HIV-1 (JRCSF)?
Reply: 0.23 nM

Task item: // map CCc1cc(=O)c2ccc(-c3c(C)noc3C)cc2n1-c1cc(N)c(F)cc1F to recorded IC50 (system: HIV-1 (JRCSF))
Reply: 7.2 nM

Task item: // fetch HIV-1 (JRCSF) IC50 for Cc1noc(C)c1-c1ccc2c(=O)cc(C)n(-c3cc(N)c(F)cc3F)c2n1
Reply: 0.38 nM

Task item: Given the entry Cc1noc(C)c1-c1ccc2c(=O)cc(C)n(Cc3cccc(F)c3N)c2c1 , what IC50 was observed with HIV-1 (JRCSF)?
Reply: 0.62 nM

* * *

- Test system: HIV-1 (JRCSF)
- Experiment Notes: Anti-HIV activity (Test Example 1-1): MaRBLE cells infected with HIV-1 (JRCSF), compound added 2 h after seeding, luciferase readout after 7 days
- Format: cell-based
- Assay Conditions: Human immunodeficiency virus 1, 168 h, 7 days culture, firefly luciferase, virus growth rate, 4 parameter Logistic Model (XLfit 4)
Readout Name: IC50

Some molecules with known IC50 results, for comparison:
[
  {
    "Molecule": "Cc1noc(C)c1-c1ccc2c(=O)cc(N)n(-c3cc(N)c(F)cc3F)c2c1 [Example 20]",
    "Target Or Test System": "HIV-1 (JRCSF)",
    "Meas Value": "2.6 nM"
  },
  {
    "Molecule": "Cc1noc(C)c1-c1ccc2c(=O)cc(CO)n(Cc3ccccc3N)c2c1 [Example 7]",
    "Target Or Test System": "HIV-1 (JRCSF)",
    "Meas Value": "0.2 nM"
  },
  {
    "Molecule": "Cc1noc(C)c1-c1ccc2c(=O)cc(CO)n(-c3ccc(F)cc3F)c2c1 [Example 22]",
    "Target Or Test System": "HIV-1 (JRCSF)",
    "Meas Value": "0.6 nM"
  }
]

Let us examine a further case.
Task item: Which IC50 reading was recorded for the molecule Cc1noc(C)c1-c1ccc2c(=O)cc(C)n(-c3cc(N)c(S(C)(=O)=O)cc3F)c2c1 [Example 31] ?
Reply: 1.8 nM
